Test system: SF-268 CNS
test-details: NCI-60 one-dose screen, 48 h (100 = growth as untreated, 0 = no growth, -100 = all killed)
details: 10 µM
The panel holds about 83,000 compounds, 20% with a hit somewhere; the sample as a whole holds those more often.
Response field label: string, one of Yes (growth strictly below 20%) or No.

Examples from the recorded data:
compound="CN1C(=O)N(C)C2SC(N/N=C/C=C/c3ccccc3)=NC21 (configuration not stated)" category_label=No
compound=NS(=O)(=O)c1ccc(NC(=O)CSc2ccc(-c3ccc(Cl)cc3)nn2)c(Br)c1 category_label=No
compound=Cc1cc(=O)oc2cc(OCCCCOc3ccc(/C=C/C(=O)Nc4cccc(Cl)c4)cc3)ccc12 category_label=No

I wonder whether COc1ccc(C(=O)CSc2nnc(-c3c[nH]c4ccccc34)n2-c2ccccc2)cc1 has growth below 20%. Can you tell?
No

I wonder whether O=C(Nc1cccc([N+](=O)[O-])c1)Nc1cccc([N+](=O)[O-])c1 has growth below 20%. Can you tell?
No

I wonder whether CNCc1cccc2c1OCCCCCC[C@@](C)(O)CC1(CC1)S(=O)(=O)c1ccc(cc1)-c1cnc(N)c(n1)C(=O)N2 has growth below 20%. Can you tell?
Yes

I wonder whether CCN1CCN(c2ccc(NC(=O)Nc3ccc(-c4cc(C(=O)NC)c5ncccc5n4)cc3)cc2C(F)(F)F)CC1 has growth below 20%. Can you tell?
Yes

I wonder whether COc1ccsc1/C=N/NC(=O)c1[nH]c2ccc(Br)cc2c1-c1ccccc1 has growth below 20%. Can you tell?
Yes

###

System: NCI-H460 lung
test-details: NCI-60 one-dose screen, 48 h (100 = growth as untreated, 0 = no growth, -100 = all killed)
details: 10 µM
Compounds without any hit were thinned out: in the full panel of roughly 83,000, 20% have a hit.
assay-endpoint: growth (%)
Numbers only, in %.

molecule="C/C(=C\\CSc1ccccc1C(=O)O)CCCC(C)CCCC(C)CCCC(C)C (stereo not given)" recorded_number=39.6
molecule="CN1C(=O)N(C)C2SC(N/N=C/c3ccc(F)cc3)=NC21 (stereo not given)" recorded_number=32.6
molecule=COc1ccc(/C=C/C(=O)c2ccc(N3CCN(C)CC3)cc2)c(C(F)(F)F)c1 recorded_number=11.2

List the reported growth of each molecule below.
1. C=C(c1ccc(OC)c(N)c1)c1cc(C)nc2ccccc12
2. COc1cccc(/C=N/NC(=O)c2ccc3nc(-c4ccc(Cl)cc4)[nH]c3c2)c1O
3. O=C(Nc1ccc(OCC(=O)c2ccccc2)cc1)Nc1ccc(Cl)c(C(F)(F)F)c1
4. CC(=O)Nc1ccc(-c2cn(-c3cccc(C(=O)Nc4cccc(OC(F)(F)F)c4)c3)nn2)cn1

[-4.48, -84.4, 18.4, 47.4]

###

System: SF-268 CNS
test-details: NCI-60 one-dose screen, 48 h (100 = growth as untreated, 0 = no growth, -100 = all killed)
details: 10 µM
Compounds without any hit were thinned out: in the full panel of roughly 83,000, 20% have a hit.
Response field label: string, one of met (growth strictly below 50%) or not met.

Examples from the recorded data:
molecule=COc1cccc(-c2ccc(/C=N/NC(=O)c3[nH]c4ccc(Br)cc4c3-c3ccccc3)o2)c1 category_label=met
molecule=O=C(Nc1cccc(C(F)(F)F)c1)c1cncc(C#Cc2cnc3cccnn23)c1 category_label=met

I wonder whether CCCn1c(O)c(N=Nc2nc(-c3cc4ccccc4oc3=O)cs2)c2cc(Br)ccc21 has growth below 50%. Can you tell?
not met

I wonder whether CN(C)c1cccc2c(S(=O)(=O)Nc3cccc(-c4csc(NC(=O)CCCCCN5CCN(c6cc7c(cc6F)C(=O)N(C6CCC(=O)NC6=O)C7=O)CC5)n4)c3)cccc12 (configuration not stated) has growth below 50%. Can you tell?
not met

I wonder whether COc1csc(/C=N/NC(=O)c2[nH]c3ccc(Br)cc3c2-c2ccccc2)c1 has growth below 50%. Can you tell?
met

I wonder whether COc1ccc(-c2cc(C(=O)N=Nc3c(O)[nH]c4ccccc34)c3ccccc3n2)cc1 has growth below 50%. Can you tell?
met

I wonder whether COc1ccc2ncc(C#Cc3cncc(C(=O)Nc4ccc(CN5CCN(C)CC5)c(C(F)(F)F)c4)c3)n2n1 has growth below 50%. Can you tell?
met

###

Tested on: MALME-3M melanoma
test-details: NCI-60 one-dose screen, 48 h (100 = growth as untreated, 0 = no growth, -100 = all killed)
details: 10 µM
This is part of a sample that, as a whole, favours compounds with a hit. Of some 83,000 tested, about 20% had one in any assay.
assay-endpoint: growth (%)
One number for each entry, in %.

molecule="C/C(=C\\CSc1ccccc1C(=O)O)CCCC(C)CCCC(C)CCCC(C)C (centres undefined)" unit_info=% recorded_number=86.4

List the reported growth of each molecule below.
1. Cc1ccc(C(=O)CSc2nnc(-c3c[nH]c4ccccc34)n2-c2ccccc2)cc1
2. Cc1ccc(-c2nc(Nc3ccc(C)c(S(N)(=O)=O)c3)c3ccccc3n2)cc1
3. Cc1ccc(-c2ccc(SCC(=O)Nc3ccc(Cl)c(C(F)(F)F)c3)nn2)cc1

1: 35.1; 2: 92.4; 3: 38.7

###

Tested on: K-562 leukemia
test-details: NCI-60 one-dose screen, 48 h
details: 10 µM
Experimental: Cells are grown in 96 well plates and exposed to the test compound for 48 hours. Compounds are tested at a single concentration, which is 10^-5 M for most compounds. The reported endpoint is percent growth (GI% or GIPRCNT), where numbers from 0 - 100% represent growth inhibition, and numbers from -100% - 0 represent cell death. For example, a value of 40 represents 60% growth inhibition. A value of 0 means no net growth occurred over the course of the experiment. […]
Compounds without any hit were thinned out: in the full panel of roughly 83,000, 20% have a hit. Calls of active or inactive are those of the source. Rule for the calls: active = growth percent below 10; inactive = the rest.
Outcomes you can answer with include only these: y = active, n = inactive

Examples from the recorded data:
molecule_smiles=CCOc1ccc(Nc2nc3ccccc3nc2Nc2ccc(OCC)cc2)cc1 category_label=n
molecule_smiles=Brc1ccc(/C=C/c2n(Cc3ccc4ccccc4c3)c3ccccc3[n+]2Cc2ccc3ccccc3c2)cc1 category_label=y
molecule_smiles=O=C1Nc2ccc(F)cc2/C1=C/c1cccc(OCc2ccccc2)c1 category_label=y
molecule_smiles=COc1cc(-c2nc3cc(Cl)c(Cl)cc3[nH]2)ccc1OCc1nnc(-c2ccc(Br)cc2)o1 category_label=y

# next molecule below
For this molecule, state the assay outcome: O=S(=O)(Nc1ncccn1)c1ccc(-n2c(-c3ccc(Br)cc3)nc(-c3ccccc3)c2-c2ccccc2)cc1
n

###

System: DU-145 prostate
test-details: NCI-60 one-dose screen, 48 h (100 = growth as untreated, 0 = no growth, -100 = all killed)
details: 10 µM
Compounds without any hit were thinned out: in the full panel of roughly 83,000, 20% have a hit.
Response field label: string, one of condition met (growth strictly below 20%) or condition not met.

Examples from the recorded data:
molecule_smiles=CCN(CC)CCOc1ccc(C(=C(C)c2ccccc2)c2ccc(OCCN(CC)CC)cc2)cc1 category_label="condition not met"
molecule_smiles=O=C(CNc1nc(-c2ccccc2)cs1)Nc1ccc(Br)cc1 category_label="condition met"
molecule_smiles=COc1ccc(/C=C/C(=O)c2ccc(S(=O)(=O)NCCNc3nc(Nc4ccc(F)cc4)nc(N(C)C)n3)cc2)cc1 category_label="condition not met"
molecule_smiles=O=c1[nH]c2ccccc2cc1CSc1ccc(Nc2nccc(-c3ccc(Cl)cc3)n2)cc1 category_label="condition met"
molecule_smiles=CO[C@H]1CSS[C@@H]1Cn1nc(-c2ccc(Oc3ccccc3)cc2)c2c(N)ncnc21 category_label="condition not met"
molecule_smiles=c1ccc(C(=C(c2ccc(OCCN3CCCCC3)cc2)c2ccc(OCCN3CCCCC3)cc2)C2CCCC2)cc1 category_label="condition met"
molecule_smiles=N#Cc1ccc(-c2nn(-c3ccc(C(=O)O)cc3)cc2CNc2cccc(Br)c2)cc1 category_label="condition not met"
molecule_smiles=N#Cc1c(NC(=O)c2ccc(C(O)(C(F)(F)F)C(F)(F)F)cc2)sc2c1CCC(=O)C2 category_label="condition met"

# next molecule below
I wonder whether O=C(NCCCCC(c1ccc(F)cc1)c1ccc(F)cc1)NCCCc1cccnc1 has growth below 20%. Can you tell?
condition not met

###

System: SF-268 CNS
test-details: NCI-60 one-dose screen, 48 h
details: 10 µM
Compounds without any hit were thinned out: in the full panel of roughly 83,000, 20% have a hit. The source made the active and inactive calls. The calls were made as follows: active = growth percent below 10; inactive = the rest.
Outcomes you can answer with include only these: active, inactive

molecule="O=C(c1ccc(Cl)cc1)C1[C@H](c2ccccc2Br)[C@@H](c2ccccc2)NC12C(=O)Nc1ccc(Cl)cc12 (stereo not given in full)" category_label=inactive

For this molecule, state the assay outcome: O=C1Nc2cc(Cl)ccc2/C1=C/c1cccc(OCc2ccccc2)c1
active

For this molecule, state the assay outcome: CCOC(=O)C1=C(N)N(c2ccccc2)C2=C(C(=O)CC(C)(C)C2)C1c1ccccc1OC (stereo not given)
inactive

For this molecule, state the assay outcome: CO[C@@H]1CSS[C@H]1Cn1nc(-c2ccc(Oc3ccccc3)cc2)c2c(N)ncnc21
inactive

For this molecule, state the assay outcome: COc1ccccc1NCc1ccc(CO)n1-c1ccc(C)cc1
inactive
